Assay: Antioxidant activity assessed as DPPH radical scavenging activity after 30 mins under dark conditions
Format: physicochemical
measuredMetric: IC50

compound: C/C(=N/N=C1\SCC(=O)N1Cc1ccc(F)cc1)c1ccccn1
measuredMetric: IC50
readoutValue: > 5 mM
//
compound: CC(C)=N/N=C1\SCC(=O)N1Cc1cccc([N+](=O)[O-])c1
measuredMetric: IC50
readoutValue: > 5 mM
//
compound: C/C(=N\N=C1/SCC(=O)N1Cc1cccc(Cl)c1)c1cccs1
measuredMetric: IC50
readoutValue: > 5 mM
//
compound: C/C(=N/N=C1\SCC(=O)N1Cc1ccccc1[N+](=O)[O-])c1cccs1
measuredMetric: IC50
readoutValue: > 5 mM
//
compound: CC(C)=N/N=C1\SCC(=O)N1Cc1ccc(N)cc1
measuredMetric: IC50
readoutValue: > 5 mM
//
compound: C/C(=N\N=C1/SCC(=O)N1Cc1cccc(Cl)c1)c1ccccn1
measuredMetric: IC50
readoutValue: > 5 mM
//
compound: O=C1CS/C(=N\N=C2CCCC2)N1Cc1ccccc1F
measuredMetric: IC50
readoutValue: > 5 mM
//
compound: C/C(=N\N=C1/SCC(=O)N1Cc1cccc(F)c1)c1cccs1
measuredMetric: IC50
readoutValue: > 5 mM
//
compound: C/C(=N/N=C1\SCC(=O)N1Cc1ccc(F)cc1)c1cccs1
measuredMetric: IC50
readoutValue: > 5 mM
//
compound: C/C(=N\N=C1/SCC(=O)N1Cc1ccccc1F)c1cccs1
measuredMetric: IC50
readoutValue: > 5 mM
//
compound: O=C1CS/C(=N\N=C2CCCC2)N1Cc1ccc(Cl)cc1
measuredMetric: IC50
readoutValue: > 5 mM
//
compound: Cc1c(C)c2c(c(C)c1O)CCC(C)(C(=O)O)O2 (configuration not stated) [TROLOX]
measuredMetric: IC50
readoutValue: 0.4 mM
